# Test system: UACC-257 melanoma
# Assay info: NCI-60 one-dose screen, 48 h (100 = growth as untreated, 0 = no growth, -100 = all killed)
# Experimental setup: 10 µM unless noted
About 83,000 compounds went through this panel and 20% of them were active in at least one assay; those are over-represented in the sample as a whole.
Everything with growth lower than 80% is Not met; everything else, including exactly 80%, is Met.

Answered cases to consult:
Is reported growth greater than or equal to 80% here: COC(=O)C(c1ccccc1)C(CC(=O)c1ccccc1)c1ccccc1 (stereo not drawn) Met

Threshold query (growth >= 80%) on O=S(=O)(NCCNc1nccc(-c2c(-c3ccc(F)c(O)c3)nc3sccn23)n1)c1ccccc1 Not met

// inclusive: growth at least 80%? input: COc1cccc2cc(-c3cc4ccccc4[nH]3)/c(=N/C(=S)Nc3ccc(C)cc3)oc12 Met

Textbook exercise: given the entry C=C(C)[C@@H]1CC[C@]2(C(=O)NCC(=O)OC)CC[C@]3(C)[C@H](CC[C@@H]4[C@@]5(C)Cc6c([nH]c7ccccc67)C(C)(C)[C@@H]5CC[C@]43C)[C@@H]12 , state whether its growth is greater than or equal to 80%. Not met

Can C=CCn1c(SCC(=O)Nc2ccc(C(=O)/C=C/c3cc(OC)c(OC)c(OC)c3)cc2)nnc1-c1cc(-c2ccc(S(C)(=O)=O)cc2)nc2ccccc12 be said to have growth at or above 80%? Met

New cases:
Threshold query (growth >= 80%) on COC(=O)CCCCCCCCC1(C)C=CC(C(C)O)=CC1 (stereo not drawn) Met

growth >= 80% for C[C@H]1[C@H](C)CC[C@]2(CO)CC[C@]3(C)C(=CC[C@@H]4[C@@]5(C)Cc6c([nH]c7ccccc67)C(C)(C)[C@@H]5CC[C@]43C)[C@H]12 ? Met

Does growth meet or surpass 80% for CC1(C)CC[C@]2(C(=O)NCC#CCN3CCOCC3)CC[C@]3(C)C(=CC[C@@H]4[C@@]5(C)Cc6c([nH]c7ccccc67)C(C)(C)[C@@H]5CC[C@]43C)[C@@H]2C1 ? Not met

Say whether COc1ccc(-c2nn(Cc3ccccc3)c3c2-c2oncc2CC3)cc1OC shows growth of 80% or more. Met

Does CCCCCCCCCCN=C(N)N=C(N)N have a reported growth of at least 80%? Not met

Would you say NC(=O)CN1CCN(c2ccccc2Cl)CC1 shows growth at minimum 80%? Met

API: above_or_equal(metric=growth, cutoff=80%) for item COc1cccc2c1C(=O)c1c(O)c3c(c(O)c1C2=O)C[C@@](O)(C(=O)CO)C[C@@H]3O[C@H]1C[C@H](N)[C@@H](O)[C@H](C)O1 Not met

Can COc1cc2nc(-c3ccc(C(F)(F)F)cc3)cc(OCCCN3CCCCC3)c2cc1OC be said to have growth at or above 80%? Not met

Threshold query (growth >= 80%) on CC(C)Sc1nc(NN)c(C#N)c(-c2ccccc2)n1 Met

// inclusive: growth at least 80%? input: COc1cccc(C(Cc2ccccc2)Nc2ccccc2)c1OC (stereo not drawn) Met

---

# System: SK-OV-3 ovarian
# Assay info: NCI-60 one-dose screen, 48 h (100 = growth as untreated, 0 = no growth, -100 = all killed)
# Experimental setup: 10 µM unless noted
Compounds without any hit were thinned out: in the full panel of roughly 83,000, 20% have a hit.
Reported endpoint: growth (%)
Entry rule: numbers only, all in %.

Some compounds with known growth results, for comparison:
Input O=C(O)c1cn(C2CC2)c2cc(N3CCN(C(=O)C[n+]4cccc5ccccc54)CC3)c(F)cc2c1=O . Output growth: 106

Query CCCCCCCCCCCCCCCC(=O)OC[C@@]1(O)C[C@@]23CC[C@@H]4C(C)(C)[C@H](O)CC[C@@]4(C)[C@@H]2CC[C@H]1C3 yields growth of 97.1

Memo: O=S(=O)(NCCNc1nccc(-c2c(-c3ccc(F)c(O)c3)nc3occn23)n1)c1ccccc1 , reported growth: 68.6

Next item in the queue.
growth for COc1cc(COC(=O)CCCCC[P+](c2ccccc2)(c2ccccc2)c2ccccc2)c(OC)c2c1OCO2 is 76.6
